Kindly supply the reported pKd values for the records listed here.
- EXPERIMENTAL SYSTEM: FALZ (Homo sapiens)
- TEST DESCRIPTION: BROMOscan ligand-binding assay
- TEST CONTEXT: BROMOscan, FALZ
pKd: −log10 of the molar value.

Indicate its recorded pKd; the compound in question is Cc1cc(=O)n(C)c2cc(N3C(=O)CC[C@H](NS(=O)(=O)CC(C)C)[C@H]3c3ccc(Cl)cc3)ccc12
< 4.30

Indicate its recorded pKd; the compound in question is O=C(C=CN1[C@H]2CC[C@@H]1c1ncnc(NC3CC3)c1C2)c1ccccc1O [PFI-3 D1]
< 4.52

---

Kindly supply the reported HATs Activity (%) values for the records listed here.
- EXPERIMENTAL SYSTEM: MYST3 (Homo sapiens)
- Sequence (Q92794 whole entry, species assumed): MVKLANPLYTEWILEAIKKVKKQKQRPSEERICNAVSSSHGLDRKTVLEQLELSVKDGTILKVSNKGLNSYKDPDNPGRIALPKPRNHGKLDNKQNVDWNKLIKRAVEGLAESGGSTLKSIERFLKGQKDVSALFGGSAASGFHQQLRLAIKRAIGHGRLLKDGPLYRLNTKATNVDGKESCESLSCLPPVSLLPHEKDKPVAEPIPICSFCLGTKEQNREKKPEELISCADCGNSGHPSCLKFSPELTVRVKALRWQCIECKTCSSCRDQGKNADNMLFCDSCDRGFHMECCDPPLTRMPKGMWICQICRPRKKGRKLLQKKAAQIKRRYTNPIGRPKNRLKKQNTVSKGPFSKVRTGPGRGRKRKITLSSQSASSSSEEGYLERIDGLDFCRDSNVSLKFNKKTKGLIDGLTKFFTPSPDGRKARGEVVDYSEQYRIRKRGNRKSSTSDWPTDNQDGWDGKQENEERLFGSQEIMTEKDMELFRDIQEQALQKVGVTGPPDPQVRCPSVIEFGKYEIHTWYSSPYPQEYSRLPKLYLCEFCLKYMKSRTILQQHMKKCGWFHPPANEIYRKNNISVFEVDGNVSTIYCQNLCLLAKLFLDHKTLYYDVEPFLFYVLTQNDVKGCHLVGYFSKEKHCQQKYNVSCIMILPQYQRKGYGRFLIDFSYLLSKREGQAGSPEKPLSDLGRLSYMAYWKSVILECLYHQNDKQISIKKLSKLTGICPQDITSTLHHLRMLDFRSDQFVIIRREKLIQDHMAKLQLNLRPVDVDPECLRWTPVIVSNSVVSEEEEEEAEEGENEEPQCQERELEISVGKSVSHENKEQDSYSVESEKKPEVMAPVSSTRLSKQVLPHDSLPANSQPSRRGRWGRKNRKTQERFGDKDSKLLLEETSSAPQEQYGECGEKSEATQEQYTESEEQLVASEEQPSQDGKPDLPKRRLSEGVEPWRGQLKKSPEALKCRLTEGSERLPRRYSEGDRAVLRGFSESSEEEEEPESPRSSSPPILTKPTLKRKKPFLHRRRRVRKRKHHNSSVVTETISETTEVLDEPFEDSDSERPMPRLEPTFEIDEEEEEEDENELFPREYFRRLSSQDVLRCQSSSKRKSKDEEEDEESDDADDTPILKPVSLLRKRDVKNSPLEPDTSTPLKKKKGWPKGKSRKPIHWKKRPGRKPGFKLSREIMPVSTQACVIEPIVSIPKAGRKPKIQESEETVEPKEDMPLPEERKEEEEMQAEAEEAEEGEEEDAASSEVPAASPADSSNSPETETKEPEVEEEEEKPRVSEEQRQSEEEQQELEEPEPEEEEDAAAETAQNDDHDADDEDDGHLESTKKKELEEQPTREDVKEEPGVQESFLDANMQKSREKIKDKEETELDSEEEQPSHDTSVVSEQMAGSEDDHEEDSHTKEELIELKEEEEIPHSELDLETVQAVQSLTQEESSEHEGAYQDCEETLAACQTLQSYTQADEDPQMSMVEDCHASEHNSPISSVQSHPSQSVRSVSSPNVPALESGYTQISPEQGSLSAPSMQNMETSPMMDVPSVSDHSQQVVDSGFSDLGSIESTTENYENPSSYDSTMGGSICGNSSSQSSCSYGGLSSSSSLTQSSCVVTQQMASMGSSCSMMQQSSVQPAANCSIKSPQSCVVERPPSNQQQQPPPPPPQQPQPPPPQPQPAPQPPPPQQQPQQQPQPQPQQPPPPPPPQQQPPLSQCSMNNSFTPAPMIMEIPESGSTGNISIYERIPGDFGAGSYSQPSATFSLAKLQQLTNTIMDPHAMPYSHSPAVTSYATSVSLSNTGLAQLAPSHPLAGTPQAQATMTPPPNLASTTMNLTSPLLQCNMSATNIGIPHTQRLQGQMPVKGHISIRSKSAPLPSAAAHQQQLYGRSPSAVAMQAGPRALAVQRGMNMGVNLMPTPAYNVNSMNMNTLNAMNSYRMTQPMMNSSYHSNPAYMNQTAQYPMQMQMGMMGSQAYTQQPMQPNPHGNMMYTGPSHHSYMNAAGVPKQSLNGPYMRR
- TEST DESCRIPTION: Histone acetyltransferase (HAT) activity assay;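 also: selectivity screen of bromodomain probe compounds across a panel of histone acetyltransferases, read out as enzyme activity in %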
- Format: biochemical
- TEST CONTEXT: 1µM
Please state the figure in %; there is no need to write the unit.

Indicate its recorded HATs Activity (%); the compound in question is COc1cc(C#N)ccc1S(=O)(=O)Nc1ccc2c(c1)cc(C)c(=O)n2C
98

Indicate its recorded HATs Activity (%); the compound in question is COc1ccccc1S(=O)(=O)Nc1ccc2c(c1)CN(C)C(=O)N2
105

Indicate its recorded HATs Activity (%); the compound in question is CCn1cc(-c2cccc(C(F)(F)F)c2)c2sc(C(=N)NC3CCS(=O)(=O)CC3)cc2c1=O
101

Indicate its recorded HATs Activity (%); the compound in question is COc1cc2c(cc1NS(=O)(=O)c1ccc(Br)cc1C)n(C)c(=O)n2C
100

Indicate its recorded HATs Activity (%); the compound in question is COc1ccccc1C(=O)Nc1cc2c(cc1N1CCNC[C@H]1C)n(C)c(=O)n2C
107

Indicate its recorded HATs Activity (%); the compound in question is Cc1cc(=O)n(C)c2cc(N3C(=O)CC[C@H](NS(=O)(=O)CC(C)C)[C@H]3c3ccc(Cl)cc3)ccc12
96

---

Kindly supply the reported Kd values for the records listed here.
- EXPERIMENTAL SYSTEM: BRD9 (Homo sapiens)
- Sequence (Q9H8M2 136-240 limits assumed): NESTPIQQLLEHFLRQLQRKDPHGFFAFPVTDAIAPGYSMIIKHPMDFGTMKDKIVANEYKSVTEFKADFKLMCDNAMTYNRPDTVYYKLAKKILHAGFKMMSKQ
- TEST DESCRIPTION: BROMOscan ligand-binding assay
- TEST CONTEXT: BROMOscan Gene Symbol BRD9
Please state the figure in µM; there is no need to write the unit.

Indicate its recorded Kd; the molecule in question is Cc1noc(C)c1-c1ccc2c(c1)nc(CCc1ccccc1)n2CCN1CCOCC1 [CBP30-298]
12

Indicate its recorded Kd; the molecule in question is COc1ccc(CCc2nc3cc(-c4c(C)noc4C)ccc3n2CCN2CCOCC2)cc1 [CBP30-383]
10

---

- EXPERIMENTAL SYSTEM: PBRM1(5) (Homo sapiens, UniProt Q86U86)
- Sequence (Q86U86 653-763 limits assumed): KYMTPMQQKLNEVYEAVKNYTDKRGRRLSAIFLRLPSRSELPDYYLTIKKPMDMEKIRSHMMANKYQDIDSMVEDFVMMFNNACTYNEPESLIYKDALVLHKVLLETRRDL
- TEST DESCRIPTION: BROMOscan ligand-binding assay
- TEST CONTEXT: KD, PBRM1(5)
PROPERTY: Kd (µM)
Please state the figure in µM; there is no need to write the unit.

Indicate its recorded Kd; the compound in question is O=C(O)c1ccccc1O
160

---

- EXPERIMENTAL SYSTEM: BRD3(1,2) (Homo sapiens, UniProt Q15059)
- TEST DESCRIPTION: BROMOscan ligand-binding assay
PROPERTY: Kd

Indicate its recorded Kd; the compound in question is CCCS(=O)(=O)c1nc(NC2CC2)cc(-c2ccc3c(ccn3C3CC(C)(C)NC(C)(C)C3)c2)n1
> 30 µM

---

- EXPERIMENTAL SYSTEM: UniProtKB Q9NSI6
- TEST DESCRIPTION: BROMOscan ligand-binding assay
- TEST CONTEXT: KD, BROMOscan Gene Symbol WDR9(2)
pKd: −log10 of the molar value.
PROPERTY: pKd

Indicate its recorded pKd; the compound in question is CCOC(=O)Nc1cc(-c2ccc(C)c(NS(C)(=O)=O)c2)nn2c(C)nnc12 [Bromosporine]
< 4.30

Indicate its recorded pKd; the compound in question is CCCOc1ccn2c(C(C)=O)cc(-c3ccccc3S(C)(=O)=O)c2c1 [GSK2801]
< 4.00

---

- EXPERIMENTAL SYSTEM: BRD4(1,2) (Homo sapiens, UniProt O60885)
- TEST DESCRIPTION: BROMOscan ligand-binding assay
- TEST CONTEXT: BROMOscan, BRD4(1,2)
PROPERTY: pKd
pKd is defined as minus the log10 of a concentration measured in mol/L.

Indicate its recorded pKd; the molecule in question is Cc1cc(=O)n(C)c2cc(N3C(=O)CC[C@H](NS(=O)(=O)CC(C)C)[C@H]3c3ccc(Cl)cc3)ccc12 [LP-99]
4.39

---

- EXPERIMENTAL SYSTEM: SUV39H1 (Homo sapiens)
- Construct: purchased DiscoverX BROMOscan (bromodomains); SGC in-house methyltransferase panel
- Sequence (O43463 whole entry): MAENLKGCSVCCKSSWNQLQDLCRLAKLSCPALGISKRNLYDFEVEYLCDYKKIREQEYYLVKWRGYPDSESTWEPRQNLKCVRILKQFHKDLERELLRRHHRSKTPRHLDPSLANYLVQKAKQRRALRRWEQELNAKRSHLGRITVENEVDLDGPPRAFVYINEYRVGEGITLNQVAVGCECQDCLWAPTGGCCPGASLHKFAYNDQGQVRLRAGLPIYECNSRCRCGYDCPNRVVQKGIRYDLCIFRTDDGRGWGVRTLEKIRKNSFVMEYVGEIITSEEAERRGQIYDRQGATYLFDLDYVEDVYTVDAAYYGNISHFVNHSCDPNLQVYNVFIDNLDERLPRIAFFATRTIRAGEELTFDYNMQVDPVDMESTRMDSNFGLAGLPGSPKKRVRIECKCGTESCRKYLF
- TEST DESCRIPTION: Methyl transferase scintillation proximity assay
- Type: biochemical
- TEST CONTEXT: average of two measurements, read-out: MTases Inhibition (%)
PROPERTY: inhibition at 10 µM (%)
Please state the figure in %; there is no need to write the unit.

Indicate its recorded inhibition at 10 µM; the compound in question is CN1C[C@H](Nc2cnn(C)c(=O)c2Br)C[C@H](c2ccccc2)C1 [GSK4027]
-3

Indicate its recorded inhibition at 10 µM; the compound in question is COc1cc(Cl)c(C(=O)N[C@@H](CN[C@H]2CC[C@@H](N)CC2)Cc2ccc(C#N)cc2)cc1-c1ccc(CN[C@H](C)c2ccc(C)cc2)o1 [BAY-850]
5

Indicate its recorded inhibition at 10 µM; the compound in question is CN(C)CCCOc1ccc(-c2cc(NCCCn3cccn3)nc(S(C)(=O)=O)n2)cc1 [TP-238]
-1

Indicate its recorded inhibition at 10 µM; the compound in question is CO[C@H]1CNC[C@@H](OCC2CCC(F)(F)CC2)[C@@H]1Nc1ncc(-c2cncc(C)c2)c2cc(C)c(=O)[nH]c12 [GSK8814]
-2

Indicate its recorded inhibition at 10 µM; the compound in question is Cc1c(NC(=O)c2cc(C(N)=O)nc3cc(F)ccc23)c(C(F)(F)F)nn1Cc1ccc(C#N)cc1 [BAY-876]
16

Indicate its recorded inhibition at 10 µM; the compound in question is Cc1c(NC(=O)c2cc(C(N)=O)nc3cc(F)ccc23)c(C(F)(F)F)nn1Cc1ccc(C(C)(C)C)cc1 [BAY-588]
12

Indicate its recorded inhibition at 10 µM; the compound in question is Cc1nnc2c3ccccc3c(N[C@@H](C)[C@H](c3ccccc3)N(C)C)nn12 [L-Moses]
-2

---

- EXPERIMENTAL SYSTEM: BRD1 (Homo sapiens, UniProt O95696)
- Sequence (O95696 562-666 limits assumed): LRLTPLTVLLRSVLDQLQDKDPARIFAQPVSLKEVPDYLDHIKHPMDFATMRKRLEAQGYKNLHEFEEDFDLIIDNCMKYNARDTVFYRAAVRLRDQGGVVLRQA
- TEST DESCRIPTION: BROMOscan ligand-binding assay
- TEST CONTEXT: BROMOscan Gene Symbol BRD1
PROPERTY: pKd
pKd is defined as minus the log10 of a concentration measured in mol/L.

Indicate its recorded pKd; the compound in question is COc1ccc(CCc2nc3cc(-c4c(C)noc4C)ccc3n2CCN2CCOCC2)cc1 [CBP30-383]
4.33

Indicate its recorded pKd; the compound in question is Cc1noc(C)c1-c1ccc2c(c1)nc(CCc1ccccc1)n2CCN1CCOCC1 [CBP30-298]
4.34

---

- EXPERIMENTAL SYSTEM: EP300 (Homo sapiens, UniProt Q09472)
- Sequence (Q09472 whole entry, species assumed): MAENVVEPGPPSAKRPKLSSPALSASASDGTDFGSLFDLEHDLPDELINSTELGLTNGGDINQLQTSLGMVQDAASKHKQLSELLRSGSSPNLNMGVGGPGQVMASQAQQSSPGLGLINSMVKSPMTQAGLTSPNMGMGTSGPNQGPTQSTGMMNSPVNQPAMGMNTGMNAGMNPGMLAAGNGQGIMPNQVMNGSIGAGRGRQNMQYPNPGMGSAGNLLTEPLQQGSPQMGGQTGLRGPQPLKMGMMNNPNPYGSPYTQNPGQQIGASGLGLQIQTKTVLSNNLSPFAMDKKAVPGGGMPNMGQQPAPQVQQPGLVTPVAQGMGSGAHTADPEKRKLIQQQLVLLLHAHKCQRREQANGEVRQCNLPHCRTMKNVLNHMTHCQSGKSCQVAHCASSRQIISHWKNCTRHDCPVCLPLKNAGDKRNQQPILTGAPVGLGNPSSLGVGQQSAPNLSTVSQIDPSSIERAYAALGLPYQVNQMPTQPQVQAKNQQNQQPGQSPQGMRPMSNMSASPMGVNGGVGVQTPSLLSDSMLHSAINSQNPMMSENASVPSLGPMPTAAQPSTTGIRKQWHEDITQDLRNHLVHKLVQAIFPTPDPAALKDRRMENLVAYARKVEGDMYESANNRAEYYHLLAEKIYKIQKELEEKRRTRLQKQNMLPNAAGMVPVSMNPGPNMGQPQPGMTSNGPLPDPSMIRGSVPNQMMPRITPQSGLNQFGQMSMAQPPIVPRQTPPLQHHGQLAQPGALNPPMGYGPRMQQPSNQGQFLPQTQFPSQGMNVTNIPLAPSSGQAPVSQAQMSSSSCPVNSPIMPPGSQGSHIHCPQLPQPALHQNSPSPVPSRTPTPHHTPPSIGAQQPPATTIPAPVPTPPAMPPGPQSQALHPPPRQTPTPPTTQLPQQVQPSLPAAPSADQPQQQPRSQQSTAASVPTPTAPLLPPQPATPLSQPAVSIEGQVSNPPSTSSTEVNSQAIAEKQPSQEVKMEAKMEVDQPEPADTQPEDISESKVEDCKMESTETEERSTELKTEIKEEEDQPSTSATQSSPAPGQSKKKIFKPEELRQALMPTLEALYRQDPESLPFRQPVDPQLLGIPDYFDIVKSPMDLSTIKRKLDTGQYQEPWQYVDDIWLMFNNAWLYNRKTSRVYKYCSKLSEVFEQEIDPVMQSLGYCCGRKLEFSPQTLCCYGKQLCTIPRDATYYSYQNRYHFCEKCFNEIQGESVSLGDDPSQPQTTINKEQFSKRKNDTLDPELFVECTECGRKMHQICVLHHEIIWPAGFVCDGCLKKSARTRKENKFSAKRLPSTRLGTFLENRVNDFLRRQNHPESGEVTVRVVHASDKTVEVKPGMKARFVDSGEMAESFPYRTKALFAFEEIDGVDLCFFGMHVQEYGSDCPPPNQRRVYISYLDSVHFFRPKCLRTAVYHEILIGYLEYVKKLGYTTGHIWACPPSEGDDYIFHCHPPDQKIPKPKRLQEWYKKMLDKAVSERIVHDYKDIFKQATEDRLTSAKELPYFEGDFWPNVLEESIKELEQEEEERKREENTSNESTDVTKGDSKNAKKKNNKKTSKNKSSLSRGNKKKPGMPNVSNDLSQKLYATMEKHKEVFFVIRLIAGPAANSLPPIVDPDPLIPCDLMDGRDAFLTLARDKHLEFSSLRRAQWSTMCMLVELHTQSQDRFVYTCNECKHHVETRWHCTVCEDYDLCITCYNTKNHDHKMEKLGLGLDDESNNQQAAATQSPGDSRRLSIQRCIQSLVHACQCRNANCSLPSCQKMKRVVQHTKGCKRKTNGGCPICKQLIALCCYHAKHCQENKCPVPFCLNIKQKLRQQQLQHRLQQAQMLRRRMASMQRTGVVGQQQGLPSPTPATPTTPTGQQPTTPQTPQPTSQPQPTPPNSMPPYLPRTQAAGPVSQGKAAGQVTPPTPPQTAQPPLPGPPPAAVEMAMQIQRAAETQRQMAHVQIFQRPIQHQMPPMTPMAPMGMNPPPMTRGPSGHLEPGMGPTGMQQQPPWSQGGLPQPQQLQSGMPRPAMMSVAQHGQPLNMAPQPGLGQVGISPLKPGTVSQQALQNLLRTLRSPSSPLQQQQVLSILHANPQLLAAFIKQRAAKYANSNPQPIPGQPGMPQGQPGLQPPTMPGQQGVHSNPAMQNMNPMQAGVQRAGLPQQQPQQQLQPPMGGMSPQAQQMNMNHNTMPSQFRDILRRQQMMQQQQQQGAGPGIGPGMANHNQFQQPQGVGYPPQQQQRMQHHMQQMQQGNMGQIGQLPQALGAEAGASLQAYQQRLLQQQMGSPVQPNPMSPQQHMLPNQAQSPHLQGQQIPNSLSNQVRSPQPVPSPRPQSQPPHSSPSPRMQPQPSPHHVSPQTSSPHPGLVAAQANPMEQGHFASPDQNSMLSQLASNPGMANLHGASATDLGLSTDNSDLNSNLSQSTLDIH
- TEST DESCRIPTION: Histone acetyltransferase (HAT) activity assay
- Format: biochemical
- TEST CONTEXT: 1µM; read-out: HATs Activity (%)
PROPERTY: activity at 1 µM (%)
Please state the figure in %; there is no need to write the unit.

Indicate its recorded activity at 1 µM; the compound in question is CO[C@H]1CNC[C@@H](OCC2CCC(F)(F)CC2)[C@@H]1Nc1ncc(-c2cncc(C)c2)c2cc(C)c(=O)[nH]c12 [GSK8814]
96

Indicate its recorded activity at 1 µM; the compound in question is CCC(=O)N1CCOc2c(cc(-c3ccc(OC)c(OC)c3)cc2OCC2CCCN(C)C2)C1 (stereo not shown) [I-CBP112]
97

Indicate its recorded activity at 1 µM; the compound in question is Cc1c(NC(=O)c2cc(C(N)=O)nc3cc(F)ccc23)c(C(F)(F)F)nn1Cc1ccc(C#N)cc1 [BAY-876]
99

Indicate its recorded activity at 1 µM; the compound in question is COc1cc(Cl)c(C(=O)N[C@@H](CN[C@H]2CC[C@@H](N)CC2)Cc2ccc(C#N)cc2)cc1-c1ccc(CN[C@H](C)c2ccc(C)cc2)o1 [BAY-850]
98

Indicate its recorded activity at 1 µM; the compound in question is O=C(C=CN1CC2CC1CN2c1ccccn1)c1ccccc1O (stereo not shown) [PFI-3]
98

Indicate its recorded activity at 1 µM; the compound in question is Cc1cc2c(cc1N1C(=O)c3cccc4c(CCCO)ccc(c34)C1=O)n(C)c(=O)n2C [BAY-299]
95

Indicate its recorded activity at 1 µM; the compound in question is Cc1c(NC(=O)c2cc(C(N)=O)nc3cc(F)ccc23)c(C(F)(F)F)nn1Cc1ccc(C(C)(C)C)cc1 [BAY-588]
103

The values you see were collected from paper PMC6478789.
